This document collects pKi values reported for hCA XII (Homo sapiens).
pKi: −log10 of the molar value.
recordedEndpoint: pKi

COc1cccc(OCc2cn(CCCS(N)(=O)=O)nn2)c1 = 5.96
COc1ccc(OCc2cn(CCCS(N)(=O)=O)nn2)cc1 = 5.71
COc1cccc(NC(=O)NCc2cn(CCCS(N)(=O)=O)nn2)c1 = 5.70
NS(=O)(=O)CCCn1cc(COc2ccccc2)nn1 = 5.57
NS(=O)(=O)CCCCn1cc(COc2ccccc2)nn1 = 5.29

P = COc1ccc(NC(=O)NCc2cn(CCCCS(N)(=O)=O)nn2)c(C)c1
Q = COc1cccc(OCc2cn(CCCCS(N)(=O)=O)nn2)c1
Select one: P or Q . Criterion: greater recorded pKi. Please respond with the label that marks your chosen entry. Q

###

target: hCA VB (Homo sapiens)
Sequence (Q9Y2D0 34-317): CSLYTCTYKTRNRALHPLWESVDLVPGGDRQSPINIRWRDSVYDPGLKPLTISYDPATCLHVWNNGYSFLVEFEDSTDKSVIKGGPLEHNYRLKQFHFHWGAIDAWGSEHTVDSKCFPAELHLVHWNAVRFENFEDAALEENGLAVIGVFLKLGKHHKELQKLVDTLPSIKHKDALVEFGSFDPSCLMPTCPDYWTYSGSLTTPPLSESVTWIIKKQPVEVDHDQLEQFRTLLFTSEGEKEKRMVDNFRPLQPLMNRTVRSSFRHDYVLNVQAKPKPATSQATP
recordedEndpoint: Ki (nM)

Example cases with answers are listed next.
COc1ccc(OCc2cn(CCCCS(N)(=O)=O)nn2)cc1 [Compound 42] = 6670
NS(=O)(=O)CCCCn1cc(COc2ccccc2)nn1 [Compound 40] = 1530
COc1cccc(OCc2cn(CCCCS(N)(=O)=O)nn2)c1 [Compound 43] = 1630
NS(=O)(=O)CCCn1cc(COc2ccccc2)nn1 [Compound 27] = 2890
COc1ccc(OCc2cn(CCCS(N)(=O)=O)nn2)cc1 [Compound 29] = 3030

a = COc1cccc(OCc2cn(CCCS(N)(=O)=O)nn2)c1 [Compound 30]
b = COc1cccc(NC(=O)NCc2cn(CCCS(N)(=O)=O)nn2)c1 [Compound 35]
c = Cc1ccc(NC(=O)NCc2cn(CCCCS(N)(=O)=O)nn2)cc1 [Compound 45]
Hey, quick one: sort these by Ki, low to high? Answer with the labels in sequence, matching the requested order. a, b, c
(a: 1440 nM, b: 4000 nM, c: 8110 nM)

###

target: hCA III (Homo sapiens); construct: made in house; test: Stopped-Flow CO2 hydrase assay, hCA III; type: biochemical; details: ratio of KI hCA II to KI hCA III
Sequence (P07451 whole entry): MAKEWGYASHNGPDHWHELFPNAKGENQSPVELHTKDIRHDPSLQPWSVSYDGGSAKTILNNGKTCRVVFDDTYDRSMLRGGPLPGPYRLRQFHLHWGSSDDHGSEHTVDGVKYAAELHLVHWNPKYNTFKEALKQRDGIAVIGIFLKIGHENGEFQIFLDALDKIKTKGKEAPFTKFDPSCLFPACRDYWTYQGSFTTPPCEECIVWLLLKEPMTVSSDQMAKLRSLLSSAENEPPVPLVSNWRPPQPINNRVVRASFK
recordedEndpoint: Selectivity Index (SI) hCA II/hCA III

Example cases with answers are listed next.
COc1cccc(NC(=O)NCc2cn(CCCCS(N)(=O)=O)nn2)c1 [Compound 48] = 9.7
NS(=O)(=O)CCCn1cc(CNC(=O)Nc2ccc(F)cc2)nn1 [Compound 31] = 3.5

P = NS(=O)(=O)CCCCn1cc(COc2ccccc2)nn1 [Compound 40]
Q = COc1ccc(OCc2cn(CCCS(N)(=O)=O)nn2)cc1 [Compound 29]
R = NS(=O)(=O)CCCCn1cc(CNC(=O)Nc2ccc(C(F)(F)F)cc2)nn1 [Compound 46]
Hey, quick one: sort these by Selectivity Index (SI) hCA II/hCA III, low to high? Answer with the labels in sequence, matching the requested order. R, Q, P

###

molecular target: hCA VA (Homo sapiens, UniProt P35218); construct: made in house; experiment: Stopped-Flow CO2 hydrase assay, hCA VA; assay type: biochemical; conditions: stopped-flow CO2 hydrase, mean from 3 assays, errors ± 5–10%; read-out: KI hCA VA
Sequence (P35218 39-305): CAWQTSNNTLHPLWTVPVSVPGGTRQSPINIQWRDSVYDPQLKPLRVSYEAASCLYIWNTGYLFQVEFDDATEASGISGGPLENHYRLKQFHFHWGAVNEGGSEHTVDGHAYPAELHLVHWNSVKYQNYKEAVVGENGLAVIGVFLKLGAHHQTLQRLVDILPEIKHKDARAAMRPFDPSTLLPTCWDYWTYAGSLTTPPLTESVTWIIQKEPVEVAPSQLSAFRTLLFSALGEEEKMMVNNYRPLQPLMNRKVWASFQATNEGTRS
pKi: −log10 of the molar value.
recordedEndpoint: pKi

Example cases with answers are listed next.
COc1ccc(OCc2cn(CCCS(N)(=O)=O)nn2)cc1 = 5.32
CCOC(=O)c1ccc(NC(=O)NCc2cn(CCCCS(N)(=O)=O)nn2)cc1 = 5.42
NS(=O)(=O)CCCn1cc(COc2ccc(F)cc2)nn1 = 5.99

P = Cc1ccc(NC(=O)NCc2cn(CCCCS(N)(=O)=O)nn2)cc1
Q = COc1ccc(NC(=O)NCc2cn(CCCCS(N)(=O)=O)nn2)c(C)c1
# compare pKi for P vs Q ; return the one with the smaller value Please respond with the label that marks your chosen entry. Q
(Q: 5.06, P: 5.48)

a = COc1ccc(OCc2cn(CCCCS(N)(=O)=O)nn2)cc1
b = COc1cccc(OCc2cn(CCCCS(N)(=O)=O)nn2)c1
# compare pKi for a vs b ; return the one with the smaller value Please respond with the label that marks your chosen entry. a

###

molecular target: hCA II (Homo sapiens)
recordedEndpoint: Ki (µM)

Example cases with answers are listed next.
NS(=O)(=O)CCCn1cc(COc2ccc(F)cc2)nn1 [Compound 28] = 2.03
COc1ccc(OCc2cn(CCCCS(N)(=O)=O)nn2)cc1 [Compound 42] = 3.93
CCOC(=O)c1ccc(NC(=O)NCc2cn(CCCS(N)(=O)=O)nn2)cc1 [Compound 34] = 2.5
NS(=O)(=O)CCCCn1cc(COc2ccc(F)cc2)nn1 [Compound 41] = 8.13
Cc1ccc(NC(=O)NCc2cn(CCCCS(N)(=O)=O)nn2)cc1 [Compound 45] = 4.93
NS(=O)(=O)CCCCn1cc(CNC(=O)Nc2ccc(F)cc2)nn1 [Compound 44] = 7.58

P = NS(=O)(=O)CCCn1cc(CNC(=O)Nc2ccc(F)cc2)nn1 [Compound 31]
Q = COc1cccc(NC(=O)NCc2cn(CCCCS(N)(=O)=O)nn2)c1 [Compound 48]
Select one: P or Q . Criterion: greater recorded Ki. Please respond with the label that marks your chosen entry. Q

###

biological target: hCA VA (Homo sapiens, UniProt P35218); construct: made in house; assay: Stopped-Flow CO2 hydrase assay, hCA VA; type: biochemical
recordedEndpoint: pKi
pKi is a log-scale quantity: -log10 of the concentration expressed in molar.

What value of pKi on hCA VA (Homo sapiens, UniProt P35218) does NS(=O)(=O)CCCCn1cc(CNC(=O)Nc2ccc(F)cc2)nn1 [Compound 44] have? 5.87
